- METHOD SUMMARY: chemical genetic growth profiling, strain panel (AID 1159580);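 also: tested at 20 µM; growth read once vehicle control cultures reached saturation at 30 °C; 1 = growth at the plate median or of vehicle wells; lower values mean less growth of the strain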
- ASSAY CONTEXT: S. cerevisiae deletion strains, growth OD, locus YGR078C, strain PAC10, active compounds read low
About 2,000 (36%) of roughly 5,500 compounds were called active. Another 18% or so got no clear call; they are omitted. This is one part of the list.
PROPERTY MEASURED: normalized growth
Just the number, please, no unit attached.

Solved cases (3 shown):
{"MOLECULAR STRING": "CC(=O)OCC1=C(C(=O)O)N2C(=O)[C@@H](NC(=O)CCC[C@@H](N)C(=O)O)[C@H]2SC1", "normalized growth": 0.993}
{"MOLECULAR STRING": "NCCCC(=O)O", "normalized growth": 1.01}
{"MOLECULAR STRING": "NC(N)=NCCSSCCN=C(N)N", "normalized growth": 0.973}

Next compound, normalized growth to be filled in.
GET /value?item= `NCCCCCC(=O)O` &field=normalized growth returns 0.997

----------
- METHOD SUMMARY: chemical genetic growth profiling, strain panel (AID 1159580);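 also: tested at 20 µM; growth read once vehicle control cultures reached saturation at 30 °C; 1 = growth at the plate median or of vehicle wells; lower values mean less growth of the strain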
- ASSAY CONTEXT: S. cerevisiae deletion strains, growth OD, locus YBR160W, strain CDC28, active compounds read low
The campaign covered roughly 5,500 compounds. About 2,000 (36%) were called active. About 18% were inconclusive and are not listed. The list shows a part of the results.
Each entry below carries its reported normalized growth.
Just the number, please, no unit attached.

{"MOLECULE": "Brc1ccc(-c2csc(-c3cccnc3)n2)cc1", "normalized growth": 0.904}
{"MOLECULE": "O=C(NNc1ccccc1)c1cc(-c2ccc(Cl)cc2)oc1C(F)(F)F", "normalized growth": 0.942}
{"MOLECULE": "CCOC(=O)c1sc(S(C)=NC(=O)Nc2ccc(Cl)cc2)c2c1CCC=C2 (stereo not given)", "normalized growth": 0.978}

response.value for `O=S(=O)(Nc1cc(Cl)c(Cl)cc1Cl)c1cc(C(F)(F)F)cc(C(F)(F)F)c1` (field: normalized growth) = 0.946

Data point: `CN(C)c1ccc(/C=C/c2ccc3ccccc3[n+]2C)cc1` ; normalized growth = 0.959

----------
normalized growth for assorted compounds
- METHOD SUMMARY: chemical genetic growth profiling, strain panel (AID 1159580);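 also: tested at 20 µM; growth read once vehicle control cultures reached saturation at 30 °C; 1 = growth at the plate median or of vehicle wells; lower values mean less growth of the strain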
- ASSAY CONTEXT: S. cerevisiae deletion strains, growth OD, locus YMR223W, strain ubp8, active compounds read low
About 2,000 (36%) of roughly 5,500 compounds were called active. Inconclusive results (about 18%) are left out. Some of the results follow.

Quick note, normalized growth for `NC(N)=NCCN1CCCCCCC1` landed at 1.02 (inactive)

According to the records, this compound O=c1[nH]c(=O)n(C2C[C@H](O)[C@@H](CO)O2)cc1C(F)(F)F (stereo partly drawn) displays normalized growth of 0.988 (inactive)

For record `O=C(O)CCCCCCCC(=O)O` the listed normalized growth is 1 (inactive)

----------
- METHOD SUMMARY: chemical genetic growth profiling, strain panel (AID 1159580);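 also: tested at 20 µM; growth read once vehicle control cultures reached saturation at 30 °C; 1 = growth at the plate median or of vehicle wells; lower values mean less growth of the strain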
- ASSAY CONTEXT: S. cerevisiae deletion strains, growth OD, locus YDR150W, strain NUM1, active compounds read low
Hit rate of the full screen: of about 5,500 compounds, about 2,000 (36%) were called active. About 18% were inconclusive and are not listed. The list shows a part of the results.
Below, each entry is listed with its recorded normalized growth.
// keep it numeric: no unit symbol after the value

{"MOLECULAR STRING": "CCN1CN=C(SCc2ccc(Br)cc2)NC1", "normalized growth": 0.995}
{"MOLECULAR STRING": "NC(N)=NCCCCN=C(N)N", "normalized growth": 0.983}
{"MOLECULAR STRING": "O=C(O)COc1ccc(Cl)cc1Cl", "normalized growth": 1.01}
{"MOLECULAR STRING": "COc1cc2c(CCNC(C)=O)c[nH]c2cc1O", "normalized growth": 1.01}
{"MOLECULAR STRING": "COc1cc(C)c2c(=O)cc(-c3ccccc3)oc2c1", "normalized growth": 1.02}
{"MOLECULAR STRING": "c1ccc(-c2ccc(-c3csc(-c4cccnc4)n3)cc2)cc1", "normalized growth": 1}
{"MOLECULAR STRING": "COC(=O)c1cscc1Sc1ccc(Cl)cc1", "normalized growth": 0.983}

Let us examine a further case.
// field: normalized growth; key: `COc1ccc(-c2cc(=O)c3c(OC)cc(OC)cc3o2)cc1` ; value = 1
